Reported TRPA1 Direct addition values are given for each entry in this list.
Study target: TRPA1 receptor (Homo sapiens)
Construct: expressed in transfected cells; host or cells: HEK cell line
Experiment description: cell-based
Recorded conditions: percentage of the control (allyl isothiocyanate) calcium count; material dissolved in DMSO at 100 micromolar; HEK cells with TRPA1; direct addition
Return type: number; implicit unit %.

Below, each entry is followed by its recorded TRPA1 Direct addition result.
1) CCC(C)(O)CCCC(C)C (centres unmarked) [Tetrahydrolinalool] : −17.09
2) CC(C)C(=O)O : 1.15
3) Cc1nc(C)c(C)s1 : −1.43
4) [Cl-].[Cl-].[Zn+2] [Zinc Chloride] : 5.46
5) CCOc1cc(C2OCC(C)O2)ccc1O (centres unmarked) : 0
6) CCOC(=O)C1OC1(C)c1ccccc1 (centres unmarked) [Ethyl 3-Methyl-3-Phenylglycidate] : 23.6
7) C=C(C)CCCC(C)CCOC(C)=O (centres unmarked) [Rhodinyl Acetate] : −17.14
8) CCOC(=O)C1OC1c1ccccc1 (centres unmarked) [Ethyl-3-Phenylglycinate] : 12.13
9) CCc1nc(C)cs1 : −1.38
10) C=CCCCCCCCCC=O : −14.32

Alright, here's another compound for you.
// query Value wanted: TRPA1 Direct addition (TRPA1 receptor (Homo sapiens)) of entry CC/C=C\CCO
// result 0.06

* * *

Reported % of AITC Receptor Activation (from Data in Table II) values are given for each entry in this list.
Study target: TRPA1 receptor (Homo sapiens, UniProt O75762)
Construct: expressed in transfected cells; host or cells: HEK cell line
Sequence (O75762 whole entry): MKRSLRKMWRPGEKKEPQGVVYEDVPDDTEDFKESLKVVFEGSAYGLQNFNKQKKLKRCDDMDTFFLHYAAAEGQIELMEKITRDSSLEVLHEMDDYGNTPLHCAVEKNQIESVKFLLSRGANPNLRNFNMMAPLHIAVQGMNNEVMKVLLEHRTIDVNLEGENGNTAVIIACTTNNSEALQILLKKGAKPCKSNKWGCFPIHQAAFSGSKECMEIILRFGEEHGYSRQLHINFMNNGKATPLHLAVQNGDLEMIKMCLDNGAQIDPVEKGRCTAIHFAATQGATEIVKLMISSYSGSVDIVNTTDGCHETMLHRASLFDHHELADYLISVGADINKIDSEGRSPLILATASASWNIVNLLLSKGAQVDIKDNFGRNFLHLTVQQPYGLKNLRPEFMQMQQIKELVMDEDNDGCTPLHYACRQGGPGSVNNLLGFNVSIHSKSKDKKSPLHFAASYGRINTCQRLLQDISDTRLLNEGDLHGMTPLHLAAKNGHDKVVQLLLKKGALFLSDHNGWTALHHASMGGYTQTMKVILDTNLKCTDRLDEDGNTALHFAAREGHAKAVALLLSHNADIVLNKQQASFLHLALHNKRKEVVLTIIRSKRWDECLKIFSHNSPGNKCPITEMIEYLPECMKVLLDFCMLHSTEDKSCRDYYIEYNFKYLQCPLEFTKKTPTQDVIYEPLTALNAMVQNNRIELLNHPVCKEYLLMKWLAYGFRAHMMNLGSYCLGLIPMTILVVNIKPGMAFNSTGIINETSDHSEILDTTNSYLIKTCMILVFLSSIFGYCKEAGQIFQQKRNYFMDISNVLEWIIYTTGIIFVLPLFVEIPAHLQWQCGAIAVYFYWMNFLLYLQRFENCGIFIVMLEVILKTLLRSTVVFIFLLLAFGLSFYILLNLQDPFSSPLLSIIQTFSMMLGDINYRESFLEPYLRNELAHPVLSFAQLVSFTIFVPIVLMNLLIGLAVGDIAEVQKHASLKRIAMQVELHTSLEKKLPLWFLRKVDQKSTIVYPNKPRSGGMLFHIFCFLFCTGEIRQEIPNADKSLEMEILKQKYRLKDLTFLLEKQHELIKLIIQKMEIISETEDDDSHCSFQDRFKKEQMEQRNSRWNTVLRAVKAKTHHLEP
Experiment description: cell-based
Recorded conditions: restated in Table III from Table II

// query Returns the measured % of AITC Receptor Activation (from Data in Table II) for the input molecule. Input: Oc1cc(Cl)ccc1Oc1ccc(Cl)cc1Cl [Triclosan, reference compound]
// result 277%

* * *

Study target: TRPA1 receptor (Homo sapiens);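 for TRPA1 Pre-incubation: values above 100 mean more active than the control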
Construct: expressed in transfected cells; host or cells: HEK cell line
Experiment description: cell-based
Parameters: dose or concentration left out as unconfirmed
Recorded conditions: HEK293; percentage of the control (allyl isothiocyanate) calcium count; material dissolved in DMSO at 100 micromolar; HEK cells with TRPA1; pre-incubation; read-out: TRPA1 Pre-incubation
Measure name: activation (%)
Return type: number; implicit unit %.

Below, each entry is followed by its recorded activation result.
1) COc1cccc(OC)c1 : 80.6
2) C=C1CC/C=C(\C)CC[C@@H]2[C@@H]1CC2(C)C : 97.8
3) CCC(C)C1CCCCC1=O (stereo not drawn) : 63.7
4) O=C(OCCc1ccccc1)c1ccccc1O [Phenethyl salicylate] : 110
5) CC/C=C\CCCCC=O [cis-6-Nonenal] : 74.7
6) OCCc1ccccc1 : 55
7) OCc1ccccc1 : 14.6
8) CC=CC(=O)C(C)CC (stereo not drawn) : 87.8
9) CC(C)=CCCC(C)CCOCC=O (stereo not drawn) : -1.16
10) CC(=O)OCC(C)C [Isobutyl Acetate] : 95.7

// query Returns the measured activation for the input compound. Input: CCCCCCCCCCCCO
// result 50.5

// query Returns the measured activation for the input compound. Input: CC/C=C/C=C/C=O [Trans,trans-2,4-Heptadienal]
// result -3.68

// query Returns the measured activation for the input compound. Input: CC/C=C\CCOC(=O)CCCCC [cis-3-Hexenyl Hexanoate]
// result 106

// query Returns the measured activation for the input compound. Input: CC(=O)OCc1ccccc1 [Benzyl Acetate]
// result 74.5

// query Returns the measured activation for the input compound. Input: COC(=O)c1ccccc1N [Methyl Anthranilate]
// result 1.27

// query Returns the measured activation for the input compound. Input: CCCCCC/C=C/C=O [Trans-2-Nonenal]
// result 23.3

// query Returns the measured activation for the input compound. Input: C=CCc1cc(OC)c(O)c(OC)c1
// result 15.5

// query Returns the measured activation for the input compound. Input: CCCCCCOC(=O)CCCCC [Hexyl Hexanoate]
// result 67.4

// query Returns the measured activation for the input compound. Input: CC1=CCC2CC1C2(C)C (stereo not drawn)
// result 86.6
